target-under-test: DYRK1A (Homo sapiens (Human))
assay-info: DYRK1A activity Tau assay: pSer396 Tau in SH-SY5Y cells by ELISA / western blot
study-conditions: overnight (16-18 h) exposure
In this section, each of the compounds is paired with its reported EC50.
observed-property: EC50

compound | recorded-value
O=C(NCc1cccc(F)c1)c1n[nH]c2ccc(-c3cc(F)cc(CN4CCCCC4)c3)cc12 [Compound 30] | 120 nM
O=C(Nc1ccnc(C(F)(F)F)c1)c1n[nH]c2ccc(-c3cncc(N4CCCC4)c3)cc12 [Compound 820] | 81 nM
O=C(Nc1cccnc1)c1n[nH]c2cc(F)c(-c3cccnc3)cc12 [Compound 99] | 878 nM
O=C(NC1(c2ccccc2)CC1)c1n[nH]c2ccc(-c3cccnc3)cc12 [Compound 32] | 279 nM
CC(C)(C)NC(=O)c1n[nH]c2ccc(-c3cccnc3)cc12 [Compound 1253] | 150 nM
CN1CC(NC(=O)c2n[nH]c3ccc(-c4cccc(F)c4F)cc23)C1 [Compound 1272] | 56 nM
O=C(NC1CCCC1)c1n[nH]c2ccc(-c3cncc(Cl)c3)cc12 [Compound 1279] | 98 nM
O=C(NC1CCCC1)c1n[nH]c2ccc(-c3cccnc3)cc12 [Compound 179] | 9 nM

###

System: Wnt activity (Wnt-responsive SP5 promoter luciferase reporter in SW480 cells)
assay-info: Wnt activity reporter assay: SW480 cells with SP5 promoter-driven firefly luciferase
Type: cell-based
study-conditions: Homo sapiens, 24 h after compound addition, read-out: Wnt inhibition
pIC50: −log10 of the molar value.
In this section, each of the molecules is paired with its reported pIC50.

molecule | target-under-test | modifier | pIC50
Cc1cncc(NC(=O)c2n[nH]c3ccc(-c4cncc(CN5CCCCC5)c4)cc23)c1 [Compound 64] | Wnt activity (Wnt-responsive SP5 promoter luciferase reporter in SW480 cells) | = | 7.23
CC(C)CC(=O)Nc1ccncc1NC(=O)c1n[nH]c2ccc(-c3cncc(CN4CCCCC4)c3)cc12 [Compound 73] | Wnt activity (Wnt-responsive SP5 promoter luciferase reporter in SW480 cells) | = | 7.60
O=C(Nc1cc(CN2CCCC2)ccc1Cl)c1n[nH]c2ccc(-c3cccnc3)cc12 [Compound 1333] | Wnt activity (Wnt-responsive SP5 promoter luciferase reporter in SW480 cells) | = | 5.29
CN(C)[C@H]1CC[C@@H](NC(=O)c2n[nH]c3ccc(-c4cccnc4)cc23)CC1 [Compound 1287] | Wnt activity (Wnt-responsive SP5 promoter luciferase reporter in SW480 cells) | < | 5.00
CC(C)NC(=O)c1n[nH]c2ccc(-c3cncc(CN4CCC(F)(F)CC4)c3)cc12 [Compound 132] | Wnt activity (Wnt-responsive SP5 promoter luciferase reporter in SW480 cells) | = | 7.33
O=C(Nc1ccc(N2CC(CO)(CO)C2)nc1)c1n[nH]c2ccc(-c3cncc(CN4CCCCC4)c3)cc12 [Compound 72] | Wnt activity (Wnt-responsive SP5 promoter luciferase reporter in SW480 cells) | = | 5.82
O=C(Nc1cnccn1)c1n[nH]c2ccc(-c3cncc(CN4CCCCCC4)c3)cc12 [Compound 88] | Wnt activity (Wnt-responsive SP5 promoter luciferase reporter in SW480 cells) | = | 6.37
O=C(NC1CCN(C2COC2)CC1)c1n[nH]c2ccc(-c3cccc(F)c3F)cc12 [Compound 1164] | Wnt activity (Wnt-responsive SP5 promoter luciferase reporter in SW480 cells) | = | 5.85
O=C(NCCN1CCOCC1)c1n[nH]c2ccc(-c3cccnc3)cc12 [Compound 1267] | Wnt activity (Wnt-responsive SP5 promoter luciferase reporter in SW480 cells) | = | 5.82
CN(C)[C@H]1CC[C@H](NC(=O)c2n[nH]c3ccc(-c4cccnc4)cc23)CC1 [Compound 1288] | Wnt activity (Wnt-responsive SP5 promoter luciferase reporter in SW480 cells) | = | 5.86
N[C@H]1CC[C@H](NC(=O)c2n[nH]c3ccc(-c4cccnc4)cc23)CC1 [Compound 1286] | Wnt activity (Wnt-responsive SP5 promoter luciferase reporter in SW480 cells) | = | 5.43
O=C(Nc1ccc(OC(CO)CO)nc1)c1n[nH]c2ccc(-c3cncc(CN4CCCCC4)c3)cc12 [Compound 70] | Wnt activity (Wnt-responsive SP5 promoter luciferase reporter in SW480 cells) | = | 6.30
O=C(NC1CCN(CC2CC2)CC1)c1n[nH]c2ccc(-c3cncc(Cl)c3)cc12 [Compound 1313] | Wnt activity (Wnt-responsive SP5 promoter luciferase reporter in SW480 cells) | = | 5.74
O=C(Nc1ccnc(C(F)(F)F)c1)c1n[nH]c2ccc(-c3cncc(CN4CCCCC4)c3)cc12 [Compound 80] | Wnt activity (Wnt-responsive SP5 promoter luciferase reporter in SW480 cells) | = | 7.44
CC(C)OCCCNC(=O)c1n[nH]c2ccc(-c3cncc(F)c3)cc12 [Compound 1263] | Wnt activity (Wnt-responsive SP5 promoter luciferase reporter in SW480 cells) | = | 5.85
NC(=O)c1n[nH]c2ccc(-c3cncc(CN4CCCCC4)c3)cc12 [Compound 89] | Wnt activity (Wnt-responsive SP5 promoter luciferase reporter in SW480 cells) | = | 5.71

###

Test system: Wnt activity (Wnt-responsive SP5 promoter luciferase reporter in SW480 cells)
assay-info: Wnt activity reporter assay: SW480 cells with SP5 promoter-driven firefly luciferase
Type: cell-based
study-conditions: Homo sapiens, 24 h after compound addition, read-out: Wnt inhibition
Lab note - cut at 4 µM for IC50: Satisfied if strictly below, Not satisfied if not.

compound | label-class
CN1CCN(c2ccc(NC(=O)c3n[nH]c4ccc(-c5cncc(CN6CCC(F)(F)C6)c5)cc34)cn2)CC1 [Compound 55] | Satisfied
O=C(NC1CCCCC1)c1n[nH]c2ccc(-c3cccnc3)cc12 [Compound 4] | Not satisfied
O=C(Nc1ccc(CN2CCCC2)cc1)c1n[nH]c2ccc(-c3cncc(F)c3)cc12 [Compound 1329] | Satisfied
CN1CCC(NC(=O)c2n[nH]c3ccc(-c4ccc(F)c(F)c4)cc23)CC1 [Compound 19] | Not satisfied
O=C(Nc1ccc(CN2CCCC2)cc1)c1n[nH]c2ccc(-c3cncnc3)cc12 [Compound 1328] | Satisfied
CN(C)CCNC(=O)c1n[nH]c2ccc(-c3cccnc3)cc12 [Compound 1259] | Satisfied
O=C(Nc1ccccn1)c1n[nH]c2ccc(-c3cncc(CN4CCCCC4)c3)cc12 [Compound 56] | Satisfied
CN1CC(NC(=O)c2n[nH]c3ccc(-c4cccc(F)c4F)cc23)C1 [Compound 1272] | Satisfied
O=C(NC1(c2ccccc2)CC1)c1n[nH]c2ccc(-c3cncc(CN4CCC4)c3)cc12 [Compound 33] | Not satisfied
N[C@H]1CC[C@@H](NC(=O)c2n[nH]c3ccc(-c4cccnc4)cc23)CC1 [Compound 1285] | Not satisfied
O=C(Nc1ccc(CN2CCCC2)cc1)c1n[nH]c2ccc(-c3cncc(Cl)c3)cc12 [Compound 1330] | Not satisfied
CN1CCC(NC(=O)c2n[nH]c3ccc(-c4ccccc4F)cc23)CC1 [Compound 16] | Not satisfied
[2H]C([2H])([2H])Oc1ccc(NC(=O)c2n[nH]c3ccc(-c4cncc(C([2H])([2H])N5CCCCC5)c4)cc23)cn1 [Compound 69] | Satisfied
O=C(NC1CC1)c1n[nH]c2ccc(-c3cccnc3)cc12 [Compound 6] | Not satisfied
O=C(Nc1cccc2cccnc12)c1n[nH]c2ccc(-c3cncc(CN4CCCCC4)c3)cc12 [Compound 81] | Not satisfied
O=C(NC1CCC1)c1n[nH]c2ccc(-c3cccnc3)cc12 [Compound 5] | Not satisfied

###

target-under-test: UniProt:Q13627
assay-info: DYRK1A activity Tau assay: pSer396 Tau in SH-SY5Y cells by ELISA / western blot
Type: cell-based
study-conditions: overnight (16-18 h) exposure
pEC50: −log10 of the molar value.

mol-smiles | pEC50
CN1CCC(N(C)C(=O)c2n[nH]c3ccc(-c4cccnc4)cc23)CC1 | 5.60
CN1CCC(NC(=O)c2n[nH]c3ccc(-c4ccc(F)cc4F)cc23)CC1 | 6.34
CC(C)(C)NC(=O)c1n[nH]c2ccc(-c3cncc(N4CCCC4)c3)cc12 | 6.38
O=C(NC1CCCCC1)c1n[nH]c2ccc(-c3cncc(F)c3)cc12 | 7.66

###

target-under-test: UniProtKB Q13627
assay-info: DYRK1A activity Tau assay: pSer396 Tau in SH-SY5Y cells by ELISA / western blot
study-conditions: overnight (16-18 h) exposure
Lab note - cut at 30 nM for EC50: T if strictly below, F if not.

mol-smiles | label-class
O=C(NC1Cc2ccccc2C1)c1n[nH]c2ccc(-c3cncc(CN4CCCCC4)c3)cc12 | T
O=C(NC1CCOCC1)c1n[nH]c2ccc(-c3cccnc3)cc12 | F
CC(C)(C)NC(=O)c1n[nH]c2ccc(-c3cncc(CN4CCC4)c3)cc12 | F
O=C(NC1CCNCC1)c1n[nH]c2ccc(-c3cccc(F)c3F)cc12 | F
O=C(Nc1ccccn1)c1n[nH]c2cc(F)c(-c3cncc(CN4CCCCC4)c3)cc12 | T
COc1ccc(NC(=O)c2n[nH]c3ccc(-c4cncc(CN5CCCC5)c4)cc23)cn1 | T
CC(C)N1CCC(NC(=O)c2n[nH]c3ccc(-c4cccnc4)cc23)CC1 | T
CC(C)CNC(=O)c1n[nH]c2ccc(-c3cccnc3F)cc12 | T
O=C(Nc1ccc(CN2CCCC2)cc1)c1n[nH]c2ccc(-c3cccnc3)cc12 | T
CN1CCC(NC(=O)c2n[nH]c3ccc(-c4cncc(CN5CCC5)c4)cc23)CC1 | F
C[C@@H]1CN(c2ccc(NC(=O)c3n[nH]c4ccc(-c5cncc(CN6CCCCC6)c5)cc34)cn2)C[C@H](C)O1 | T
O=C(Nc1cccc(C(F)(F)F)n1)c1n[nH]c2ccc(-c3cccnc3)cc12 | F
CN(C)Cc1cncc(-c2ccc3[nH]nc(C(=O)NC4Cc5ccccc5C4)c3c2)c1 | F
CN(C(=O)c1n[nH]c2ccc(-c3cncc(CN4CCCCC4)c3)cc12)c1cccnc1 | F
CC(C)NC(=O)c1n[nH]c2ccc(-c3cncc(Cl)c3)cc12 | F
O=C(NC1CCOCC1)c1n[nH]c2ccc(-c3cccc(F)c3)cc12 | F
CCN(CC)Cc1cncc(-c2ccc3[nH]nc(C(=O)NC(C)C)c3c2)c1 | F

Source listed as patent US10669240B2.
